Cited source for all entries: patent US20220056142A1

# tested.target: T1, N-terminal ECD protein of mouse FGFR3 with a terminal avidin tag (mouse, UniProt Q61851 21-369)
# T1 construct: extracellular domain; not shown: terminal avidin tag
# T1 sequence (looked up): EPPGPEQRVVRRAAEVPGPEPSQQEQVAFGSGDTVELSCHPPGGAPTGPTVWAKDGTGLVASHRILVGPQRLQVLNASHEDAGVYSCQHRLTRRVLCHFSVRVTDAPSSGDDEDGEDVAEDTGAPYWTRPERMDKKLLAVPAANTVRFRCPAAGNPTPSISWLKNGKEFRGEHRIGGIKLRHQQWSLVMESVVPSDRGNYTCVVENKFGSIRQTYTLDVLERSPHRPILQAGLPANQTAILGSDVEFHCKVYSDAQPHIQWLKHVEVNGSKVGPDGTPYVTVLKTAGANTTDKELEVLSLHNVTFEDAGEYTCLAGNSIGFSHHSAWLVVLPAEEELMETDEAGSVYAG
# assay: SPR (Biacore), FGFR3 ECD immobilised on chip, antibody injected, 1:1 fit

{"binder": "KC18 (antibody, V domains shown, Mouse monoclonal antibody from a hybridoma; also called anti-FGFR3 antibody KC18; KC18 mouse antibody) VH: QVQLQQSGAELVRPGASVTLSCKASGDTFTDFEIHWVKQTPVHGLEWIGDIDPETGGTAYNQKFRGRAMLTADRSSSTAYMELRSLTSEDSAVYYCTRTYDGYPYAMDYWGQGTSVTVSS VL: DIVMSQSPSSLAVSVGEKVTMSCKSSQSLLYSNNQKNYLAWYQQKPGQSPKLLIYWASTRESGVPDRFTGSGSGTDFTLTISSVKAEDLAVYYCQQYYSYRTFGGGTKLEIK", "unit.name": "M⁻¹ s⁻¹", "kon": 174000}
{"binder": "KE58 (antibody, V domains shown, Mouse monoclonal antibody from a hybridoma; also called anti-FGFR3 antibody KE58) VH: EVQLQQSGPDLVKPGASVKISCKASGYTVTDYYMNWVKQSHGKSLEWIGDINPNNGVTTYNQKFKDKATLTVDKSSSTAYMELRSLTSEDSAVYYCAREEDFDGFDYWGQGTTLTVSS VL: DIVMTQSHKFMSTSVGDRVSITCKASQDVSTGVAWYQQKPGQSPQLLIYWASTRHTGVPDRFTGSGSGTDYILTIRSVQAEDLALYYCQQHYSTPLTFGAGTKLELK", "unit.name": "M⁻¹ s⁻¹", "kon": 167000}
{"binder": "KE63 (antibody, V domains shown, Mouse monoclonal antibody from a hybridoma; also called anti-FGFR3 antibody KE63) VH: QVQLQQSGAELVRPGASVTLSCKASGSTFSDFEIHWVKQTPVHGLEWIGGIDPETGGTAYNQKFKGKAILTADRSSSTAYMELRSLTSEDSAVYYCTRNYDGYSQTMDYWGQGTSVTVSS VL: NIMMTQSPSSLAVSAGEKVTMSCKSSQSVLYSSNQKNYLAWYQQKPGQSPKLLIYWASTRESGVPDRFTGSGSGTDFTLTISSVQAEDLAVYYCHQYLSSYTFGGGTKLEMK", "unit.name": "M⁻¹ s⁻¹", "kon": 436000}
